Origin of values: ChEMBL document CHEMBL1208772

experiment: Volume of distribution at steady state in ICR mouse at 0.5 umol/kg, iv; assay type: ADME, organism-based; conditions: in vivo, read-out: Vdss
measuredQuantity: Vd
Remember to quote the unit after the number.

Vd reading for `C[C@H]1CN(C(=O)c2cn3c4c(cccc24)OC[C@H]3C2CCCCC2)CCN1C` : 2.6 L/kg

====

test: Cmax in ICR mouse brain at 0.5 umol/kg, iv; assay type: ADME, organism-based; design: dose 0.5 umol/kg, route intravenous
measuredQuantity: Cmax
Remember to quote the unit after the number.

Cmax reading for `C[C@H]1CN(C(=O)c2cn3c4c(cccc24)OC[C@H]3C2CCCCC2)CCN1C` : 76.2 ng/g

====

assay: AUC in ICR mouse plasma at 0.5 umol/kg, iv; format: ADME
measuredQuantity: AUC (ng·h/mL)
Reply with just the number (in ng·h/mL).

AUC reading for `C[C@H]1CN(C(=O)c2cn3c4c(cccc24)OC[C@H]3C2CCCCC2)CCN1C` : 23.7

====

experiment: Aqueous solubility of the compound at citrate buffer of pH 5; format: physicochemical
measuredQuantity: solubility (µg/mL)
Reply with just the number (in µg/mL).

solubility reading for `CCN1CCN(C(=O)c2cn(CC3CCCCC3)c3c(OC)cccc23)CC1` : 3400

====

experiment: Tmax in ICR mouse brain at 0.5 umol/kg, iv; format: ADME, organism-based
measuredQuantity: Tmax (min)
Reply with just the number (in min).

Tmax reading for `C[C@H]1CN(C(=O)c2cn3c4c(cccc24)OC[C@H]3C2CCCCC2)CCN1C` : 10.2

====

molecular target: Cannabinoid receptor 1 (Homo sapiens); experiment: Agonist activity at human cannabinoid CB1 receptor expressed in CHO cells after 5 hrs by luciferase reporter gene assay
Sequence (P21554 whole entry): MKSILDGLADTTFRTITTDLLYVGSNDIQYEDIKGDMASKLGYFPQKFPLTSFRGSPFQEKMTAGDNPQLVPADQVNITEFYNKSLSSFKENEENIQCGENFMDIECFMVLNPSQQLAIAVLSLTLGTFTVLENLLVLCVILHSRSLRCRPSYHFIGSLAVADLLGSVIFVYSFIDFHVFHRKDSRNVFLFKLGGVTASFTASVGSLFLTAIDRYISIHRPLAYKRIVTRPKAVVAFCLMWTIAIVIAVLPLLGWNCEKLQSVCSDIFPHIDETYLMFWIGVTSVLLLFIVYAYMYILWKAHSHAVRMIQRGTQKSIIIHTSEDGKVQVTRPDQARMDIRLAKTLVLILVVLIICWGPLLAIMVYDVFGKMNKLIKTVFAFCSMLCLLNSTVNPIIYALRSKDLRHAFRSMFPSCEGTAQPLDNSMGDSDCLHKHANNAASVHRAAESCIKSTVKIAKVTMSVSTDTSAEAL
Can you tell me EC50 for the items I'm about to list?

# `C[C@@H]1CN(C)C[C@H](C)N1C(=O)c1cn2c3c(cccc13)OC[C@H]2C1CCCCC1` with Cannabinoid receptor 1 (Homo sapiens): EC50 is 63.1 nM

# `CCN1CCN(C(=O)c2cn3c4c(cccc24)OC[C@@H]3C2CCCCC2)CC1` with Cannabinoid receptor 1 (Homo sapiens): EC50 is > 10000 nM

# `C[C@@H]1CNC[C@H](C)N1C(=O)c1cn2c3c(cccc13)OC[C@H]2C1CCCCC1` with Cannabinoid receptor 1 (Homo sapiens): EC50 is 794 nM

# `C[C@H]1CN(C(=O)c2cn3c4c(cccc24)OC[C@H]3C2CCCCC2)CCN1` with Cannabinoid receptor 1 (Homo sapiens): EC50 is 501 nM

# `C[C@@H]1CN(C(=O)c2cn3c4c(cccc24)OC[C@H]3C2CCCCC2)C[C@H](C)N1` with Cannabinoid receptor 1 (Homo sapiens): EC50 is 126 nM

# `COc1cccc2c(C(=O)N3C[C@@H](C)N(C)[C@@H](C)C3)cn(CC3CCCCC3)c12` with Cannabinoid receptor 1 (Homo sapiens): EC50 is 25.1 nM

# CCN1CCN(C(=O)c2cn3c4c(cccc24)OCC3C2CCCCC2)CC1 (stereo unspecified) with Cannabinoid receptor 1 (Homo sapiens): EC50 is 31.6 nM

# CCN1CCN(C(=O)c2cn3c4c(cccc24)CCC3C2CCCCC2)CC1 (stereo unspecified) with Cannabinoid receptor 1 (Homo sapiens): EC50 is 25.1 nM

# `CCN1CCN(C(=O)c2cn(CC3CCCCC3)c3c(OC)cccc23)CC1` with Cannabinoid receptor 1 (Homo sapiens): EC50 is 158 nM

# `CCN1[C@H](C)CN(C(=O)c2cn(CC3CCCCC3)c3c(OC)cccc23)C[C@@H]1C` with Cannabinoid receptor 1 (Homo sapiens): EC50 is 10 nM

# `O=C(c1cn2c3c(cccc13)OC[C@H]2C1CCCCC1)N1CCNCC1` with Cannabinoid receptor 1 (Homo sapiens): EC50 is 3980 nM
